Reference source: PubChem BioAssay

test: enhancers of glutamate uptake in motor neurons, MN-1 cell line (AID 1612); conditions: MN-1 motor neuron cells, stronger effect = higher value;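 note: tested at 1 µM final; 0% = mean of DMSO vehicle wells on each plate; positive means more glutamate uptake than control and negative means less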
readout.name: glutamate uptake change (%)
One number for each entry, in %.

CNC1(c2ccccc2Cl)CCCCC1=O (stereo not drawn); -3.45
Cc1cc2c(C(C)C)c(O)c(O)c(C=O)c2c(O)c1-c1c(C)cc2c(C(C)C)c(O)c(O)c(C=O)c2c1O; -53.4

## Task Report glutamate uptake change for CNC(C)Cc1ccc2c(c1)OCO2 (stereo not drawn)
## Result -3.54

###

tested on: Aerobactin synthetase IucA (Klebsiella pneumoniae hvKP1); assay: Biochemical IucA enzyme inhibition primary screen of the Spectrum library (AID 1346200); conditions: malachite green pyrophosphate, A620, at 8 µM, stronger effect = lower value;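 note: 100% = wells without compound and 0% = wells lacking enzyme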
What activity remaining was measured for each of the following?
Numbers only, in %.

Worked examples, 3 molecules total:
C=C(C)[C@H]1Cc2c(ccc3c2O[C@@H]2COc4cc(OC)c(OC)cc4[C@@H]2C3=O)O1; 92.3
CC[C@]12CCCN3CCc4c(n(c5ccccc45)C(=O)C1)[C@@H]32; 101
Nc1nc(=S)c2[nH]cnc2[nH]1; 121

Below are 5 molecules. Give each one its activity remaining.
1. CNCC[C@H](Oc1cccc2ccccc12)c1cccs1
2. C=C1C[C@]23C[C@@]1(O)CC[C@H]2[C@@]12C=C[C@H](O)C(C)(C(=O)O1)[C@H]2[C@@H]3C(=O)O
3. CCCCC(=O)O[C@H]1CCC2C3CCc4cc(O)ccc4C3CC[C@@]21C (stereo not given in full)
4. CC(=O)OC1CCC2C3CCc4cc(O)ccc4C3CCC12C (stereo not given)
5. COC(=O)C1=CO[C@@H](C)[C@@H]2CN3CC[C@@]4(C(=O)Nc5ccccc54)[C@H]3CC12 (stereo not given in full)

## Result
1: 114; 2: 121; 3: 97.5; 4: 123; 5: 101

Below are 3 molecules. Give each one its activity remaining.
1. COc1c(-c2coc3cc4c(cc3c2=O)CC(O)C(C)(C)O4)ccc2c1C=CC(C)(C)O2 (stereo not given)
2. CC[C@H]1OC(=O)[C@H](C)[C@@H](O[C@H]2C[C@@](C)(OC)[C@@H](O)[C@H](C)O2)[C@H](C)[C@@H](O[C@@H]2O[C@H](C)C[C@H](N(C)C)[C@H]2O)[C@](C)(O)C[C@@H](C)C(=O)[C@H](C)[C@@H](O)[C@]1(C)O
3. CN1CCN(C(c2ccccc2)c2ccccc2)CC1

## Result
[112, 117, 113]

Below are 6 molecules. Give each one its activity remaining.
1. COC(=O)c1c(Cl)c(Cl)c(C(=O)OC)c(Cl)c1Cl
2. C/C1=C\CC(C)(C)/C=C/CC2(C)OC2CC1 (stereo not given)
3. CCn1cc(C(=O)O)c(=O)c2cc(F)c(N3CCNC(C)C3)c(F)c21 (stereo not given)
4. CN(C)CCCN1c2ccccc2Sc2ccc(C(F)(F)F)cc21
5. CN(C)CCC=C1c2ccccc2CCc2ccccc21
6. COc1ccc(C(=O)CC(=O)c2ccc(C(C)(C)C)cc2)cc1

## Result
1. 110
2. 107
3. 104
4. 108
5. 110
6. 104

Below are 3 molecules. Give each one its activity remaining.
1. CC(=O)O[C@H]1CC[C@@]2(C)C(C[C@@H](OC(C)=O)[C@]3(C)C2CC[C@@]2(C)[C@H](c4ccoc4)OC(=O)[C@H]4O[C@]423)C1(C)C (stereo not given in full)
2. C[C@@H]1C(=O)O[C@H]2[C@H]1CC[C@@]1(C)C=CC(=O)[C@@]3(C)O[C@@]213
3. CCCc1cc(OC)c2c(c1)OCO2

## Result
1: 82.9; 2: 112; 3: 106

###

test: ovarian cancer cell viability with rucaparib, profiling panel, oncology-focused library, rucaparib conditional (AID 1508598); conditions: patient-derived ovarian cancer cells, CellTiter-Glo viability, 144 h; at 0.0781 µM; OCI-P5x cells; with rucaparib 20 µM; stronger effect = lower value; 100% = cells with rucaparib alone
Calls of active or inactive are those of the source.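 The calls were made as follows: active = normalized viability below 100% at a tested concentration; inactive = the rest.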
readout.name: viability

Worked examples, 4 molecules total:
C/C(=C\c1csc(C)n1)[C@H]1C[C@@H]2O[C@]2(C)CCC[C@H](C)[C@H](O)[C@@H](C)C(=O)C(C)(C)[C@H](O)CC(=O)O1; 45.8% (active)
Cn1c(CCCC(=O)O)nc2cc(N(CCCl)CCCl)ccc21; 92.7% (active)
O=S(=O)(CC1CS1)c1ccc(Oc2ccccc2)cc1 (stereo not given); 85.3% (active)
Cn1cc(C2=C(c3cn(C4CCN(Cc5ccccn5)CC4)c4ccccc34)C(=O)NC2=O)c2ccccc21; 119% (inactive)

Now, please, on to the next molecule.
## Task Report viability for Cc1c(N)nc([C@H](CC(N)=O)NC[C@@H](N)C(N)=O)nc1C(=O)N[C@H](C(=O)N[C@@H](C)[C@H](O)[C@@H](C)C(=O)N[C@@H](C(=O)NCCc1nc(-c2nc(C(=O)NCCC[S+](C)C)cs2)cs1)[C@@H](C)O)C(O[C@H]1O[C@H](CO)[C@H](O)[C@@H](O)[C@H]1O[C@H]1O[C@H](CO)[C@@H](O)[C@H](OC(N)=O)[C@@H]1O)c1cnc[nH]1 (stereo not given in full)
## Result 94.6% (active)

###

test: differential killing of epithelial or mesenchymal cells, primary screen, imaging, PC-3E GFP, TEM4-18 mCherry, co-culture (AID 1345086); conditions: imaging cell counts, measured here: epithelial PC-3E GFP cell survival, at 1 µM;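 note: cells exposed to compound for 72 h before imaging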
readout.name: normalised cell number
Answers are plain numbers.

Worked examples, 6 compounds total:
CCC(C)C(=O)O[C@@H]1C[C@@]2(C)[C@H](c3ccoc3)OC(=O)CC23OC2(C)O[C@]14C1(C)[C@@H](CC(=O)OC)C5(C)CC1(O)[C@](O)(C5OC(=O)C1(C)OC1C)[C@@H](OC(C)=O)[C@]34O2 (stereo partly specified); 0.97
C=C(C)C1CNC(C(=O)O)C1CC(=O)O (stereo unspecified); 0.92
C=CCc1cc(OC)c2c(c1OC)OCO2; 0.73
CCN1C[C@@]2(COC)C3[C@@H](OC)[C@H]4[C@@H]1[C@]3(C(OC)C[C@H]2O)C1C[C@@]2(O)[C@H](OC(=O)c3ccccc3)C1[C@]4(OC(C)=O)[C@@H](O)[C@@H]2OC (stereo partly specified); 1.01
C=C(C)c1cc2cc(C(C)=O)c(O)cc2o1; 1.14
COc1ccc(C(CN(C)C)C2(O)CCCCC2)cc1 (stereo unspecified); 1.01

Below are 2 compounds. Give each one its normalised cell number.
1. C=CCN1CC[C@]23c4c5ccc(O)c4OC2C(=O)CC[C@@]3(O)[C@H]1C5 (stereo partly specified)
2. O=C(O)CC[N+](=O)[O-]

## Result
1.09
0.86

Below are 8 compounds. Give each one its normalised cell number.
1. CC1(C)C(=O)C=C[C@@]2(C)C1=C(O)C(=O)[C@]1(C)C2CC[C@@]2(C)[C@H](c3ccoc3)C[C@H]3O[C@]321 (stereo partly specified)
2. C=CCSSCC=C
3. c1ccc(N2CCNCC2)cc1
4. COc1cc([C@@H]2c3cc4c(cc3[C@H](OC(C)=O)C3COC(=O)[C@@H]32)OCO4)cc(OC)c1OC (stereo partly specified)
5. C[C@@H]1O[C@@H](O[C@H]2CC[C@]3(C=O)C4CC[C@]5(C)[C@@H](C6=CC(=O)OC6)CC[C@]5(O)C4CC[C@]3(O)C2)[C@H](O)[C@H](O)[C@H]1O (stereo partly specified)
6. O=C1CN=C(c2ccccc2Cl)c2cc([N+](=O)[O-])ccc2N1
7. Cc1nccc2c1[nH]c1ccccc12
8. CC(NC(C)(C)C)C(=O)c1cccc(Cl)c1 (stereo unspecified)

## Result
1. 0.97
2. 0.87
3. 0.95
4. 0.2
5. 0.1
6. 0.93
7. 0.91
8. 1.04

Below are 5 compounds. Give each one its normalised cell number.
1. C[C@]12CCC3C(CC[C@H]4C[C@@H](O)CC[C@]34C)C1CCC2=O (stereo partly specified)
2. CCOP(=S)(OCC)Oc1cc(C)nc(C(C)C)n1
3. NCCc1c[nH]c2ccc(O)cc12
4. C[C@]12CCC3C(CC[C@H]4C[C@H](O)CC[C@]34C)C1CCC2=O (stereo partly specified)
5. C/C=C/c1ccc2c(c1)OCO2

## Result
[1.2, 1, 0.95, 0.84, 1.11]

###

assay: ovarian cancer cell viability with rucaparib, profiling panel, oncology-focused library, rucaparib conditional (AID 1508598); details: patient-derived ovarian cancer cells, CellTiter-Glo viability, 144 h; at 0.00488 µM; OCI-P5x cells; with rucaparib 20 µM; stronger effect = lower value; 100% = cells with rucaparib alone
What viability was measured for each of the following?
One number for each entry, in %.

Worked examples, 6 compounds total:
Cc1c(N)nc([C@H](CC(N)=O)NC[C@@H](N)C(N)=O)nc1C(=O)N[C@H](C(=O)N[C@@H](C)[C@H](O)[C@@H](C)C(=O)N[C@@H](C(=O)NCCc1nc(-c2nc(C(=O)NCCC[S+](C)C)cs2)cs1)[C@@H](C)O)C(O[C@H]1O[C@H](CO)[C@H](O)[C@@H](O)[C@H]1O[C@H]1O[C@H](CO)[C@@H](O)[C@H](OC(N)=O)[C@@H]1O)c1cnc[nH]1 (some centres not stated); 96
C/C(=C\c1csc(C)n1)[C@H]1C[C@@H]2O[C@@H]2CCC[C@H](C)[C@H](O)[C@@H](C)C(=O)C(C)(C)[C@H](O)CC(=O)O1; 51
C/C(=C\c1csc(C)n1)[C@H]1C[C@@H]2O[C@]2(C)CCC[C@H](C)[C@H](O)[C@@H](C)C(=O)C(C)(C)[C@H](O)CC(=O)O1; 48
CC(C)[C@@]12O[C@@H]1[C@@H]1O[C@]13[C@]1(O[C@@H]1C[C@@H]1C4=C(CC[C@@]13C)C(=O)OC4)[C@@H]2O; 13.9
Cc1sc2c(c1C)C(c1ccc(Cl)cc1)=N[C@@H](CC(N)=O)c1nnc(C)n1-2; 97.5
Cn1c(CCCC(=O)O)nc2cc(N(CCCl)CCCl)ccc21; 103

## Task Report viability for O=S(=O)(CC1CS1)c1ccc(Oc2ccccc2)cc1 (configuration not stated)
## Result 89.9
